Hello, the source for this data is patent US20250154198A1, in case you need it.

# Ki values compiled below
tgt: human IL-23R (Homo sapiens, UniProt Q5VWK5)
Construct: UniProtKB—Q5VWK5, amino acids 22-629; secretion signal of the plasmid (Promega N1371); expressed in transfected cells
Sequence (Q5VWK5 22-629): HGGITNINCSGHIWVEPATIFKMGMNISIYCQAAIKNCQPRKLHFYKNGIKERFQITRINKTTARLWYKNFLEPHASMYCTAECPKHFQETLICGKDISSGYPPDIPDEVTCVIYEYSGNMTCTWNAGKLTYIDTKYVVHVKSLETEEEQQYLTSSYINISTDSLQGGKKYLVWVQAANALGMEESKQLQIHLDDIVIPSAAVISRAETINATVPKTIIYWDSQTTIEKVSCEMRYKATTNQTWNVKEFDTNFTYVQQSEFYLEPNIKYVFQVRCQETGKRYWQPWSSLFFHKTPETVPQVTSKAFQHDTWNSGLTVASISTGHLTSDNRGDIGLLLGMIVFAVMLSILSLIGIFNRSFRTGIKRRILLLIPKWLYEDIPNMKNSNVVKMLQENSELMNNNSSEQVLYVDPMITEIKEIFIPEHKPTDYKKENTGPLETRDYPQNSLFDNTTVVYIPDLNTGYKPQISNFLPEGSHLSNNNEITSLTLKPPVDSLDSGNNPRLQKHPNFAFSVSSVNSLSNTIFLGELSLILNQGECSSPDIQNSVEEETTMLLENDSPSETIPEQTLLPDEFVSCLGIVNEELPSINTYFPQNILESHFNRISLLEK
protocolSummary: Binding assay (NanoBRET displacement of fluorophore-labelled reference compound) for estimating binding affinity to human IL-23R
*1 amine or outer side, *2 acyl side, *3 side chain or, on linkers, in order; H or OH if unused. Where a SMILES comes first, the peptide text is derived from it. Bridges are numbered along the chain shown (N, C = ends). [ ]: non-standard residue; d: D form. 2Nal = N[C@@H](Cc1ccc2ccccc2c1)C(=O)O; αMeL = CC(C)C[C@](C)(N)C(=O)O; CH2COCH2 = O=C(C[*:1])C[*:2]

Completed entries (count: 2):
molecule	Ki
CC(C)C[C@@H]1NC(=O)[C@H](Cc2c[nH]c3ccccc23)NC(=O)[C@H](Cc2c[nH]c3ccccc23)NC(=O)[C@@H]2CSSC[C@H](NC(=O)[C@H](CO)NC(=O)[C@@H](NC(=O)[C@@H](N)CC(=O)O)CSCC(=O)CSC[C@@H](C(=O)N[C@@H](CCCNC(=N)N)C(N)=O)NC1=O)C(=O)N[C@@H](Cc1c[nH]c3ccccc13)C(=O)N[C@@H](CCC(N)=O)C(=O)N2 [Compound 53, H-DC(1a)SC(2b)WQC(2b)WWLC(1a)R-[NH2]]	> 1 µM
CC(=O)N[C@@H](CC(=O)O)C(=O)N[C@H]1CSCC(=O)CSC[C@@H](C(=O)N[C@@H](CCCNC(=N)N)C(N)=O)NC(=O)[C@](C)(CC(C)C)NC(=O)[C@H](Cc2c[nH]c3ccccc23)NC(=O)[C@H](Cc2ccc(O)cc2)NC(=O)[C@@H]2CSCC(=O)CSC[C@H](NC(=O)[C@H](CCC(N)=O)NC1=O)C(=O)N[C@@H](Cc1c[nH]c3ccccc13)C(=O)N[C@@H](CCC(N)=O)C(=O)N2 [Compound 63] (Ac-DCQCWQCYW[αMeL]CR-NH2; linker 2-11, 4-7 via CH2COCH2)	> 1 µM

Q. Quote Ki with test system human IL-23R (Homo sapiens, UniProt Q5VWK5) for CC(=O)N[C@@H](CC(=O)O)C(=O)N[C@H]1CSCC(=O)CSC[C@@H](C(=O)N[C@@H](CCCNC(=N)N)C(N)=O)NC(=O)[C@](C)(CC(C)C)NC(=O)[C@H](Cc2c[nH]c3ccccc23)NC(=O)[C@H](Cc2ccc3ccccc3c2)NC(=O)[C@@H]2CSCC(=O)CSC[C@H](NC(=O)[C@H](CCC(N)=O)NC1=O)C(=O)N[C@@H](Cc1c[nH]c3ccccc13)C(=O)N[C@@H](CCC(N)=O)C(=O)N2 [Compound 62] (Ac-DCQCWQC[2Nal]W[αMeL]CR-NH2; linker 2-11, 4-7 via CH2COCH2)
A. > 1 µM
